experiment: Cytotoxicity evaluation
conditionContext: human, Cytotoxicity (%), extended treatment in the absence of S9 mix; 5 mmol/L

- chemicalStructure: "CCCCC/C=C\\C/C=C\\CCCCCCCC(=O)OCC1(C)COC1"
  unitName: "%"
  cytotoxicity at 5 mmol/L: 19.6

###

experiment: Cytotoxicity evaluation
conditionContext: human, Cytotoxicity (%), extended treatment in the absence of S9 mix; 0.020 mmol/L

- chemicalStructure: "CCCCC/C=C\\C/C=C\\CCCCCCCCP(=O)(OCC)OCC"
  cytotoxicity at 0.02 mmol/L [%]: 49.5

###

experiment: Cytotoxicity evaluation
conditionContext: human, Cytotoxicity (%), short treatment in the absence of S9 mix; 5 mmol/L
observedProperty: cytotoxicity at 5 mmol/L (%)

- chemicalStructure: "CCCCC/C=C\\C/C=C\\CCCCCCCC(=O)OCC1(C)COC1"
  unitName: "%"
  recordedNumber: -1.42
